Test system: Lymphocytic leukemia P388
Experiment: animal or person
Type: in vivo, BDF1 mice
Details: ip, once daily 9 days; dose giving T/C survival of 125%; copper-chelated form unless otherwise stated
Method: The antitumor activity of the tallysomycin derivatives was examined in four experimental tumor systems in mice. […] Death or survival of the treated and non-treated (control) animals was recorded daily during the observation period of 45 days after the implantation of tumor cells, and the median survival time was calculated for each of the test (T) and control (C) groups. […] The antitumor therapeutic index was calculated for each derivative from the ratio of toxicity and antitumor activity.
Rule for this label: Satisfied means Antitumor activity P388 (ED125) is less than 2 mg/kg/day; Not satisfied means Antitumor activity P388 (ED125) is at least 2 mg/kg/day.

Asked: Check if Antitumor activity P388 (ED125) falls below 2 mg/kg/day for Cc1c(N)nc(C(CC(N)=O)NCC(N)C(N)=O)nc1C(=O)NC(C(=O)NC(C)C(O)CC(=O)NC(C(=O)NC(OC1OC(C)C(N)C(O)C1O)C(O)c1nc(-c2nc(C(=O)NCCCNC(C)c3ccccc3)cs2)cs1)C(C)O)C(OC1OC(CO)C(O)C(O)C1OC1OC(CO)C(O)C(OC(N)=O)C1O)c1c[nH]cn1 (centres unmarked) [Tallysomycin S14b] .
Given back: Not satisfied

Asked: Check if Antitumor activity P388 (ED125) falls below 2 mg/kg/day for Cc1c(N)nc(C(CC(N)=O)NCC(N)C(N)=O)nc1C(=O)NC(C(=O)NC(C)C(O)CC(=O)NC(C(=O)NC(OC1OC(C)C(N)C(O)C1O)C(O)c1nc(-c2nc(C(=O)NCCCC(N)CC(=O)NCCC[S+](C)C)cs2)cs1)C(C)O)C(OC1OC(CO)C(O)C(O)C1OC1OC(CO)C(O)C(OC(N)=O)C1O)c1c[nH]cn1 (centres unmarked) [Tallysomycin S2a] .
Given back: Not satisfied

Asked: Check if Antitumor activity P388 (ED125) falls below 2 mg/kg/day for Cc1c(N)nc(C(CC(N)=O)NCC(N)C(N)=O)nc1C(=O)NC(C(=O)NC(C)C(O)CC(=O)NC(C(=O)NC(OC1OC(C)C(N)C(O)C1O)C(O)c1nc(-c2nc(C(=O)NCCCNCCO)cs2)cs1)C(C)O)C(OC1OC(CO)C(O)C(O)C1OC1OC(CO)C(O)C(OC(N)=O)C1O)c1c[nH]cn1 (centres unmarked) [Tallysomycin S6b] .
Given back: Not satisfied

Asked: Check if Antitumor activity P388 (ED125) falls below 2 mg/kg/day for Cc1c(N)nc(C(CC(N)=O)NCC(N)C(N)=O)nc1C(=O)NC(C(=O)NC(C)C(O)CC(=O)NC(C(=O)NC(OC1OC(C)C(N)C(O)C1O)C(O)c1nc(-c2nc(C(=O)NCCCN(C)C)cs2)cs1)C(C)O)C(OC1OC(CO)C(O)C(O)C1OC1OC(CO)C(O)C(OC(N)=O)C1O)c1c[nH]cn1 (centres unmarked) [Tallysomycin S7b] .
Given back: Not satisfied

Asked: Check if Antitumor activity P388 (ED125) falls below 2 mg/kg/day for Cc1c(N)nc(C(CC(N)=O)NCC(N)C(N)=O)nc1C(=O)NC(C(=O)NC(C)C(O)CC(=O)NC(C(=O)NC(OC1OC(C)C(N)C(O)C1O)C(O)c1nc(-c2nc(C(=O)NCCCC(N)CC(=O)NCCCN(CCO)CCO)cs2)cs1)C(C)O)C(OC1OC(CO)C(O)C(O)C1OC1OC(CO)C(O)C(OC(N)=O)C1O)c1c[nH]cn1 (centres unmarked) [Tallysomycin S8a] .
Given back: Satisfied

Asked: Check if Antitumor activity P388 (ED125) falls below 2 mg/kg/day for Cc1c(N)nc(C(CC(N)=O)NCC(N)C(N)=O)nc1C(=O)NC(C(=O)NC(C)C(O)CC(=O)NC(C(=O)NC(OC1OC(C)C(N)C(O)C1O)C(O)c1nc(-c2nc(C(=O)NCCCC(N)CC(=O)NCCCN)cs2)cs1)C(C)O)C(OC1OC(CO)C(O)C(O)C1OC1OC(CO)C(O)C(OC(N)=O)C1O)c1c[nH]cn1 (centres unmarked) [Tallysomycin S1a] .
Given back: Satisfied

Asked: Check if Antitumor activity P388 (ED125) falls below 2 mg/kg/day for Cc1c(N)nc(C(CC(N)=O)NCC(N)C(N)=O)nc1C(=O)NC(C(=O)NC(C)C(O)CC(=O)NC(C(=O)NC(OC1OC(C)C(N)C(O)C1O)C(O)c1nc(-c2nc(C(=O)NCCN)cs2)cs1)C(C)O)C(OC1OC(CO)C(O)C(O)C1OC1OC(CO)C(O)C(OC(N)=O)C1O)c1c[nH]cn1 (centres unmarked) [Tallysomycin S3b] .
Given back: Satisfied
